studyTarget: pure human DP-IV (Homo sapiens)
Sequence (P27487 whole entry): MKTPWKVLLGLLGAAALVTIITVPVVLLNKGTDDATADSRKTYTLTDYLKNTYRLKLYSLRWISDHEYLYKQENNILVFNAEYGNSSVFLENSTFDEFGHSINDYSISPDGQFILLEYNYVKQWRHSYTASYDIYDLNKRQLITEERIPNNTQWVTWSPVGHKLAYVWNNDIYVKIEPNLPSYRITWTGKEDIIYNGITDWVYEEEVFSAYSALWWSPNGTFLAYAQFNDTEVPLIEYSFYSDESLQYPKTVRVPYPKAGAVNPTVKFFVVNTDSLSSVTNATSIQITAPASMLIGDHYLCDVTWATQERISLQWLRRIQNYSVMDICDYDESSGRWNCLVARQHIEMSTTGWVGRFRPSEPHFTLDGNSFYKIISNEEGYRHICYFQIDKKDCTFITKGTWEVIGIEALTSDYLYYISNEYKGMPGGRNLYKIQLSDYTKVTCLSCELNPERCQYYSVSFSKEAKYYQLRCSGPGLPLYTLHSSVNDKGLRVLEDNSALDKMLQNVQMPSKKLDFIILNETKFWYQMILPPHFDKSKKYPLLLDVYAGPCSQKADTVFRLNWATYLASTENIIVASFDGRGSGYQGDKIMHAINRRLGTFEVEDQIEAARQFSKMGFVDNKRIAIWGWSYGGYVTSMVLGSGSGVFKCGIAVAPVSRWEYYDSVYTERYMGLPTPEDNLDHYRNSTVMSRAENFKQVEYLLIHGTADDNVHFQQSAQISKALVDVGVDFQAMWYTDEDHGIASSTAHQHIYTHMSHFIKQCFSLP
assayDetails: Inhibition of pure human DP-IV in vitro, fluorescent substrate Ala-Pro-AFC, Ki from Dixon plots
pKi: −log10 of the molar value.
attributeMeasured: pKi

Answered cases to consult:
1) N[C@@H](CCC(=O)NCCCCCC(=O)OCc1ccccc1)C(=O)N1CCCC1 [compound 59] = 6.82
2) N#C[C@@H]1CCCN1C(=O)[C@@H](N)CCC(=O)NCCCCCC(=O)OCc1ccccc1 [compound 97] = 9.30
3) CC1(C)C2CC3OB(C4CCCN4C(=O)C4CC=CCC4N)OC3(C)C1C2 (stereo not drawn) [compound 44] = 8.70
4) N[C@H]1CCCC[C@@H]1C(=O)N1CCC[C@H]1C=O [compound 38] = 8.01

a: N[C@@H](CCC(=O)NCCCCCCC(=O)NCCCCCC(=O)O)C(=O)N1CCCC1 [compound 66]
b: N#C[C@@H]1CSCN1C(=O)[C@@H](N)C1CCCC1 [compound 23]
Kindly identify the item with the lower pKi figure among these two: a and b Mark your answer with the label of the selected entry.
a
(a: 6.74, b: 9.30)

* * *

studyTarget: UniProt:P27487
assayDetails: Inhibition of pure human DP-IV in vitro, fluorescent substrate Ala-Pro-AFC, Ki from Dixon plots
attributeMeasured: Ki (µM)

1. N[C@@H](CCCCNC(=O)CCCNS(=O)(=O)c1c(F)c(F)c(F)c(F)c1F)C(=O)N1CCCC1 [compound 110, H-Lys[CO(CH2)3 NHSO2 Pfp]Prl] = 0.25
2. N#C[C@@H]1CCCN1C(=O)[C@@H](N)CCCCNC(=O)CCCCCCCN [compound 136] = 0.017

P: CCCCCCO[C@H](C)[C@H](N)C(=O)N1CCCC1 [compound 143, H-Thr[(CH2)5 CH3]pyrrolidide]
Q: N#C[C@@H]1CCCN1C(=O)[C@H]1CC=CC[C@@H]1N [compound 35]
Could you determine which record has the numerically smaller Ki? Candidates: P and Q Write down the label attached to your selection.
Q

* * *

studyTarget: UniProt P27487
assayDetails: Inhibition of pure human DP-IV in vitro, fluorescent substrate Ala-Pro-AFC, Ki from Dixon plots
appliedConditions: read-out: Ki against DP-IV; pure human DP-IV, pH 7.8, substrate Ala-Pro-AFC, Dixon plots
attributeMeasured: pKi
Scale: pKi equals -log10([C]), with [C] in mol/L.

// lookup pKi for CC[C@H](C)[C@H](N)/C=C1\CCC[C@H]1C#N
5.77
